# experimental details: in vivo
# measurement conditions: ICR, mouse, po, 10 mg/kg
# Description: Cmax in ICR mouse at 10 mg/kg, po measured upto 24 hrs by LC-MS/MS analysis
measure name: Cmax at 24 h
Field note: include the unit after the figure.

Field request: Cmax at 24 h | item: O=C1C2=C(CCN(Cc3ccccc3)C2)N2CCN=C2N1Cc1ccc(C(F)(F)F)cc1
873 ng/mL

====

# Tested on: SU-DHL-2
# experimental details: Antiproliferative activity against human SU-DHL-2 cells assessed as cell viability measured after 72 hrs incubation by CellTiter-based growth inhibition assay
# measurement conditions: SU-DHL-2, 72 h
measure name: pIC50
Answers are plain numbers, as −log10 of the molar value.

Field request: pIC50 | item: O=C1C2=C(CCN(Cc3ccccc3)C2)N2CCN=C2N1Cc1ccc(C(F)(F)F)cc1
6.65
